Values were extracted from the supplement of paper PMC6555819.

Tested on: PPARg homodimer (NR concentration 180 nM)
protocol.notes: PBM binding z-score (relative to random genomic background probes); higher = stronger binding; sequences stand for … in GC…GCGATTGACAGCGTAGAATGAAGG
attribute.measured: PBM binding z-score

- sequence.record: "CCTACTGGCCCAAAAAGGTCATTGATGCCGATAA"
  measured.value: 3.4
- sequence.record: "AGAATGAGGTTGAGATCAGGGAAACAGAATACAT"
  measured.value: 0.146
- sequence.record: "AATATTAGTTGACTTAGGGCAACCGATACGACGC"
  measured.value: 0.835
- sequence.record: "CCGACTGGGGCAAGGTTACCATAACGCACAGCCA"
  measured.value: 0.674
- sequence.record: "AATACAGGGTCATCCTAGGCCAGAGTACGCACAG"
  measured.value: 2.39
- sequence.record: "AGAACGAGGGCAATGAGGTGATAGCACGGGTGGC"
  measured.value: 0.588

----------
Tested on: RXRa DBDmut IVT, anti-RXR (DBD mutation: RXRa K156A/R161A, NR concentration 90 nM)
protocol.notes: PBM binding z-score (relative to random genomic background probes); higher = stronger binding; sequences stand for … in GC…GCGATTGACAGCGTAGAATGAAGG
# label = 1 (yes) if PBM binding z-score >= 0.2 else 0 (no)

- sequence.record: "CCTTACGGGTCATTCCAGGTTATAGCATCGGAGT"
  label: "1 (yes)"
- sequence.record: "GCTGCTAGGTCAGCTGATGGTCAGCTAAAGCTCG"
  label: "1 (yes)"
- sequence.record: "AGTCAAAGTTCACTAGGTAACGTAAGATTCAGCT"
  label: "1 (yes)"
- sequence.record: "CCTCGGAGGACAGAAGGTCAGAGCAGTCCGCTTT"
  label: "1 (yes)"
- sequence.record: "CGAACTAGGTCATCCAGCACAGTGAATACATTGA"
  label: "1 (yes)"
- sequence.record: "ATACCAAGGCGATCGTGAGGTCGTTGATACTAAC"
  label: "1 (yes)"
- sequence.record: "CAAACTAGATCAAGAGGTCAAAGTCCGCTTCCCG"
  label: "1 (yes)"
- sequence.record: "TAGCCGAGGTCAGATCGGGCCAGTATACGCTATA"
  label: "1 (yes)"
- sequence.record: "AGAATGAGGATATTAAGATCAGGGAATTGCGGTC"
  label: "0 (no)"
- sequence.record: "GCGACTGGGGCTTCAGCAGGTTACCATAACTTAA"
  label: "0 (no)"
- sequence.record: "CCAGACAGGTGAGAAGCTAACTCAGCCTCGATTA"
  label: "0 (no)"
- sequence.record: "GCTATTAGTTGAAAGGGCAACCGGATGATTCTCG"
  label: "1 (yes)"
- sequence.record: "ATCTCTAGGTAAAGATAATTCAGTGAATGCAAAT"
  label: "0 (no)"
- sequence.record: "CCTACTAGGCCAAAAAGGTCATTGATGCCGATAA"
  label: "1 (yes)"
- sequence.record: "ATATGTAGGTTAGCTGGGGTCATTCAAACTAGGC"
  label: "1 (yes)"
- sequence.record: "ACTAGCAGGCCATGGGTCACTCAAGATTAGTCCG"
  label: "0 (no)"
- sequence.record: "AGAATGAGGTTACCAAAGATCAGGGAAACGCTTG"
  label: "1 (yes)"
- sequence.record: "CGTCCAAGGTCAAAGAGGTCAGTGAATGCCGAGT"
  label: "1 (yes)"
- sequence.record: "TCATAAAGGTAAAGGTGAAAGTCGAACGATATGA"
  label: "1 (yes)"
- sequence.record: "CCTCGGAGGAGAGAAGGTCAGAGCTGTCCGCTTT"
  label: "0 (no)"
- sequence.record: "GCGACTGGGGCAAAGCAGGTGACCATAAGGTTGG"
  label: "0 (no)"
- sequence.record: "CTACCAAGGTAAACAAGGTCGTTGATTACTATTC"
  label: "1 (yes)"
- sequence.record: "CCTTACGTGTCACTGACAGGTTATAGCATTTGGA"
  label: "1 (yes)"
- sequence.record: "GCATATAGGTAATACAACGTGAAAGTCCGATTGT"
  label: "0 (no)"
- sequence.record: "GCTGCTAGGTCAATTGATGGTCAGCTAAAGCTCG"
  label: "1 (yes)"
- sequence.record: "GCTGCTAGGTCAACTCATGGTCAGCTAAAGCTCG"
  label: "1 (yes)"
- sequence.record: "GCTCGGAGGACAAGGGCAGAGCTTTGTCCGTAGA"
  label: "0 (no)"

----------
System: PPARg:RXRa DBDmut IVT, anti-RXR (DBD mutation: RXRa K156A/R161A, NR concentration 270 nM, RXRa partner concentration 90 nM)
protocol.notes: PBM binding z-score (relative to random genomic background probes); higher = stronger binding; sequences stand for … in GC…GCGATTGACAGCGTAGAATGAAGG
# label = bin(measured PBM binding z-score), where bins are lower bin: < 0.7; middle bin: ≥ 0.7 and < 2; upper bin: ≥ 2

- sequence.record: "TCTTGAAGATCAAAGGTTAAGAAAGCCGAAGCCT"
  label: "middle bin"
- sequence.record: "ATCCCTAGGTAAAAGTTCAGTGAATCCCGAGGAT"
  label: "lower bin"
- sequence.record: "ATACCAAGGTGATCGTGAGGTCGTCGATACTAAC"
  label: "middle bin"
- sequence.record: "GCGCGGAGGACAAGGTCAGAGCTTTGTCCGTAGA"
  label: "lower bin"
- sequence.record: "GGAAAGAGGGCATTCGAGTTGATAGCATGGCGAT"
  label: "upper bin"
- sequence.record: "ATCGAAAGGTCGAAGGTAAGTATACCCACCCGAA"
  label: "lower bin"
- sequence.record: "TCTAGCAGGCGAGAGGGTCACTCAAGAGGTACGG"
  label: "lower bin"
- sequence.record: "CCTACGGGGCCATTCAGAGGTCATTGATCATATG"
  label: "lower bin"
- sequence.record: "ACTCTGAGGACAAAGGTCAGAGCTACGCCAGTGA"
  label: "middle bin"
- sequence.record: "GATACATGGTCAAGGCCAGAGTACGCGTATTGAT"
  label: "lower bin"
- sequence.record: "CAAACTAGGTCACGAAAAGTCAAAGTCGAATGAC"
  label: "upper bin"
- sequence.record: "GCGACTGGGGCAAAGCAGGTTAGCATAAGGTTGG"
  label: "upper bin"
- sequence.record: "CAAACTAGGTCAACAGGTCAAAGTCCGCTTCCCG"
  label: "upper bin"
- sequence.record: "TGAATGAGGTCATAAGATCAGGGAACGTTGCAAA"
  label: "upper bin"
- sequence.record: "GGAACGAGGGCAAGGTTGATAGCATCTGTCGACG"
  label: "upper bin"
- sequence.record: "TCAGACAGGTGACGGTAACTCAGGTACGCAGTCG"
  label: "upper bin"
- sequence.record: "CCTAGCAGGCCAATCTGGATCACTCAAGGCTTGA"
  label: "middle bin"
- sequence.record: "AATACAGGGTCATCGGAGGCCAGAGTACGCACAG"
  label: "upper bin"
- sequence.record: "CCTCGGAGAACAACAGGAGGTCAGAGCTGCCAGA"
  label: "lower bin"
- sequence.record: "TATACATGGTCAAAGGCCAGAGTACGAATGTCGA"
  label: "lower bin"
- sequence.record: "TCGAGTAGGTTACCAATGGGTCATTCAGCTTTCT"
  label: "upper bin"
- sequence.record: "TGAATGAGGTTATAAGATCAGGAAACGTTGCAAA"
  label: "lower bin"
- sequence.record: "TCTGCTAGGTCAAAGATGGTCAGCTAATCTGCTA"
  label: "upper bin"
- sequence.record: "CGTCCAAGGTCGATGCTAGGTCAGTGAAAGCATT"
  label: "lower bin"
- sequence.record: "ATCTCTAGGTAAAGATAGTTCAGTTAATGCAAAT"
  label: "upper bin"
- sequence.record: "CCTTACGGGTAACTGACAGGTTATAGCATTTGGA"
  label: "middle bin"
- sequence.record: "CCTCCAAGGTCAGCAGGTCAGTGAAAGCGACGTG"
  label: "upper bin"
- sequence.record: "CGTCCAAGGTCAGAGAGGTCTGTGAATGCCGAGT"
  label: "upper bin"

----------
Test system: RARg:RXRa (NR concentration 270 nM, RXRa partner concentration 90 nM)
protocol.notes: PBM binding z-score (relative to random genomic background probes); higher = stronger binding; sequences stand for … in GC…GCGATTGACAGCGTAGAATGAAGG
# label = bin(measured PBM binding z-score), where bins are low interval = under 0.7, middle interval = from 0.7 up to 3, high interval = 3 and over

- sequence.record: "TCCGCTAGGTCAACGATGGTCAGCTAATCTGCTA"
  label: "high interval"
- sequence.record: "TCTAGCAGGCCAGAGGGTCACTTAAGAGGTACGG"
  label: "middle interval"
- sequence.record: "GATACAGGGTCAAGGCCAGAGCACGCGTATTGAT"
  label: "high interval"
- sequence.record: "AGAATGAGGTTAAGCTCAGGGAAACAGAATACAT"
  label: "middle interval"
- sequence.record: "TTACTAAGGTGAAAGGTCGTTGATGCACGCCTTG"
  label: "high interval"
- sequence.record: "TAGCCTAGGGCATGGGCCAGTATACCACGCGAAC"
  label: "low interval"
- sequence.record: "ACTAGCAGGCCAATGGTCACTCAAGATTAGTCCG"
  label: "low interval"
- sequence.record: "TAGCCTAGGTCAGATCGGGCCAATATACGCTATA"
  label: "middle interval"
- sequence.record: "GCTTGCAGATCAAGGTTAAGAAAGACTAAGCTAA"
  label: "low interval"
